Target: Metabotropic glutamate receptor 8 (Rattus norvegicus)
Test: mGluR8 Gi/Go-coupled signaling modulation – cell-based, rat, thallium flux, HTS, primary screen (AID 488969)
Conditions: HEK293 rat mGluR8, GIRK thallium flux, FluoZin2; at 10 µM; stronger effect = higher value; submaximal glutamate (EC20) added with thallium
Whole data set: some 110,000 compounds, median “z-score” near -0.1, cut for the highest 2% near 2. The entries come from a sample that favours the highest values as a whole.
z-score reference
Number only, please.

Some solved cases for reference:
Structure as smiles: Cn1ccnc1SCC(=O)c1cc2ccccc2o1
Target entity: Metabotropic glutamate receptor 8 (Rattus norvegicus)
Reported measurement: 0.608
--
Structure as smiles: COC(=O)CCC(=O)Nc1cccc(Cl)c1
Target entity: Metabotropic glutamate receptor 8 (Rattus norvegicus)
Reported measurement: -0.0969
--
Structure as smiles: Cn1c(SCC(=O)c2cc3ccccc3o2)nnc1-c1ccccc1
Target entity: Metabotropic glutamate receptor 8 (Rattus norvegicus)
Reported measurement: 4.93
--
Structure as smiles: Cn1c(SCC(N)=O)nnc1-c1ccccc1
Target entity: Metabotropic glutamate receptor 8 (Rattus norvegicus)
Reported measurement: 0.403
--
Structure as smiles: Cc1ccc(Cl)cc1NC(=O)Cn1cccc1
Target entity: Metabotropic glutamate receptor 8 (Rattus norvegicus)
Reported measurement: -0.44

[in] # return recorded z-score for entry Nc1cc(=O)[nH]c(SCC(=O)Nc2cccc(Cl)c2)n1
[out] 0.151

[in] Determine from records and report z-score for Cc1ccc(NC(=O)CCn2cccc2)cc1Cl
[out] -0.079

----------
Biological target: Metabotropic glutamate receptor 8 (Rattus norvegicus)
Experiment: mGluR8 Gi/Go-coupled signaling modulation – cell-based, rat, thallium flux, HTS, primary screen (AID 488969)
Details: HEK293 rat mGluR8, GIRK (G protein-gated inwardly rectifying potassium channel) thallium flux, FluoZin2; at 10 µM; stronger effect = higher value; submaximal glutamate (EC20) added with thallium
Over roughly 110,000 compounds, “z-score” has its median near -0.1; the highest 2% begin near 2. The sample as a whole holds a higher share of the highest values than the screen did.
Readout label: z-score
I only need the number, thanks.

Solved entries (count: 3):
Compound: CC1CN(Cc2cc(=O)[nH]c(C3CC3)n2)CC(C)O1 (configuration not stated)
Target entity: Metabotropic glutamate receptor 8 (Rattus norvegicus)
z-score: -0.155

Compound: COc1ccc(CCNC(=O)c2cc(-c3ccccc3)on2)cc1OC
Target entity: Metabotropic glutamate receptor 8 (Rattus norvegicus)
z-score: 0.914

Compound: CCN(c1nc(C)cc(OC)n1)S(=O)(=O)c1ccccc1
Target entity: Metabotropic glutamate receptor 8 (Rattus norvegicus)
z-score: -0.243

[in] Tell me z-score reported for CC(C)(C)c1ccc(OCc2ccc(C(=O)N/N=C/c3ccc([N+](=O)[O-])cc3)o2)cc1
[out] -0.4

[in] Please look at this compound and report its z-score: Cc1c(NC(=O)/C(C#N)=C/c2c(Oc3ccccc3)nc3ccccn3c2=O)c(=O)n(-c2ccccc2)n1C
[out] 1.16

[in] Give me measured z-score, please, for this compound: COC(=O)CN(c1nc(C)cc(OC)n1)S(=O)(=O)c1ccccc1
[out] -0.5

[in] Hello, please tell me recorded z-score for this one: Cc1ccc(C2N(c3ccc(F)cc3)C(=O)C3CCCN32)cc1 (configuration not stated)
[out] 0.214

[in] Specify reported z-score for the compound shown: C=CCNC(=O)c1nn2cccnc2c1Cl
[out] -0.068
